Origin of measurements: paper PMC10745926

- targetDesc: α4β2* nAChR (Rattus norvegicus, UniProt P09483+P12390)
- Construct: Horizontal brain slices, 10 µm thick from male Sprague Dawley rats; from tissue; host or cells: rat brain slices (male Sprague Dawley), several brain regions
- testProtocol: [3H]cytisine competition binding on rat brain slices (autoradiography)
- protocolConditions: rat brain, several brain regions (abstract); read-out: IC50 for [3H]cytisine radiolabeled sites
pIC50: −log10 of the molar value.
testReadout: pIC50

Query: Which value of pIC50 has been reported for c1ncc(N2CCN3CCC2CC3)cc1OCC1CCN1 (stereo not shown) [KS7] in the records?
Response: 6.76 to 7.30

====

- targetDesc: α7 nAChR (Rattus norvegicus)
- testProtocol: biochemical
- Type: binding
- protocolConditions: rat brain slices, Anterior Cingulate; read-out: Inhibition constants (IC50), [125I]α-BuTX, α7* nAChRs
testReadout: pIC50
Give only the number. pIC50 is defined as minus log10 of concentration in molar units.

Query: For the record c1ncc(N2CCN3CCC2CC3)cc1OCC1CCN1 (stereo not shown) [KS7] , what value of pIC50 is listed for α7 nAChR (Rattus norvegicus)?
Response: 4.90
